- Assay comment: P-glycoprotein substrates identified in KB-8-5-11 adenocarcinoma cell line, qHTS therapeutic library screen (AID 1346987); also: nearly all actives have a fitted effect of over 65% in size
- Experimental setup: KB-8-5-11 (P-gp overexpressing) viability, CellTiter-Glo, 72 h; series mostly up to 44.5 µM
Records with an inconclusive call do not appear. Active and inactive are the calls of the source. Calls follow the shape of the dose curve; as a rule, active = well fitted inhibition curve with a large enough effect; inconclusive = small, poorly fitted or top-dose-only effect; inactive = flat fitted curve, though single readings scatter.
Outcomes: 1 for active, 0 for inactive

                                   molecule  label_value
0                                  CN(C)CCO            0
1  C=CC(C)(C)c1[nH]c2c(CC=C(C)C)cc(CC=C(C)C)cc2c1C[C@@H]1NC(=O)[C@H](C)NC1=O            0
2  C[C@]12CC[C@H](O)CC1=CC[C@@H]1C2CC[C@]2(C)[C@@H](C3=CC(=O)OC3)CC[C@]12O (some centres undefined)            1
3  Cc1c(Cl)c(OCC(=O)N2CCN(C)CC2)nc2sc(C(=O)NC3CC3)c(N)c12            0
4    C=CCN1CCC2(C)c3cc(O)ccc3C[C@H]1[C@H]2C            0
5      C=CCC1([C@@H](C)CCC)C(=O)NC(=O)NC1=O            0
6  O=C(NCCN1CCC2(CC1)C(=O)NCN2c1cccc(F)c1)c1ccc(F)c(F)c1            1
7  CC1=C[C@H]2O[C@@H]3C[C@H]4OC(=O)/C=C/C=C/C(=O)OCC/C(C)=C/C(=O)OC[C@@]2(CC1)[C@]4(C)[C@]31CO1            1
8  C/C=C1/CN2CC[C@]34C(=Nc5ccc(OC)cc53)C2C[C@@H]1C4(CO)C(=O)OC (some centres undefined)            0

====

Examples of molecules with documented max response follow.
- System: HaCat
- Assay comment: Cytotoxic Profiling of Annotated Libraries Using Quantitative High-Throughput Screening (AID 1296008); also: % is scaled to controls: 0 for no effect and ±100 for the full control effect; nearly all actives have a fitted effect of over 60% in size
- Experimental setup: Five cell lines viability, CellTiter-Glo ATP luminescence, 48-72 h; hits give low values
Results filed as inconclusive are left out. Calls of active or inactive are those of the source. Calls follow the shape of the dose curve; as a rule, active = well fitted inhibition curve with a large enough effect; inconclusive = small, poorly fitted or top-dose-only effect; inactive = flat fitted curve, though single readings scatter.
Measurement name: max response

Molecule	Measurement name	Observed result
C=CC(C)(C)c1[nH]c2c(CC=C(C)C)cc(CC=C(C)C)cc2c1C[C@@H]1NC(=O)[C@H](C)NC1=O	max response	-1.56% (inactive)
Cc1ccccc1C1=CCN(C)CC1	max response	-6.61% (inactive)
CO[C@@H]1[C@@H](O)[C@@H](O[C@H]2CC[C@]3(C=O)C4CC[C@]5(C)[C@@H](C6=CC(=O)OC6)CC[C@]5(O)[C@@H]4CC[C@H]3C2)O[C@@H](C)[C@H]1O[C@@H]1O[C@H](CO[C@@H]2O[C@H](CO)[C@@H](O)[C@H](O)[C@H]2O)[C@@H](O)[C@H](O)[C@H]1O (stereo partly drawn)	max response	-22.5% (inactive)

====

- Measured target: Cytochrome P450 2C19 (Homo sapiens)
- Assay comment: qHTS Assay for Inhibitors and Substrates of Cytochrome P450 2C19 (AID 899); also: nearly all actives have a fitted effect of over 60% in size
- Experimental setup: recombinant CYP2C19, luciferin-H EGE luminescence; series mostly up to 57.1 µM
Results filed as inconclusive are left out. Active and inactive are the calls of the source. Calls follow the shape of the dose curve; as a rule, active = well fitted inhibition curve with a large enough effect; inconclusive = small, poorly fitted or top-dose-only effect; inactive = no such curve, though single readings can be large or run the other way.
Outcomes: true (active), false (inactive)

>>> df
                                    compound  label_value
 0  CC1=C[C@@H]2c3cccc4[nH]cc(c34)C[C@H]2N(C)C1        false
 1  COc1ccc(-n2nc(C(F)(F)F)cc2-c2ccc(Cl)cc2)cc1         true
 2              NC[C@H](CC(=O)O)c1ccc(Cl)cc1         true
 3           COC(=O)c1cc2c(cn1)[nH]c1ccccc12         true
 4  O=C1C[C@@H](c2ccc(O)cc2)Oc2cc(O)cc(O)c21         true
 5                    O=C1C2CCN(CC2)C1(CO)CO         true
 6  CN(N=O)C(=O)N[C@H]1C(O)OC(CO)[C@@H](O)[C@H]1O (stereo partly specified)         true
 7            Cc1o[nH]c(=O)c1C[C@H](N)C(=O)O         true
 8  C[C@@H](Cc1ccc(OCC(=O)O)cc1)NC[C@H](O)c1cccc(Cl)c1         true
 9  CN1CCN(C(=O)O[C@@H]2c3nccnc3C(=O)N2c2ccc(Cl)cn2)CC1        false
10  O=c1c(O)c(-c2cc(O)c(O)c(O)c2)oc2cc(O)cc(O)c12         true
